Some molecules, each annotated with its measured γ2/γ1 Selectivity Ratio.
Study target: human GABAA α1β3γ2 receptor (Homo sapiens (Human), UniProt P14867+P18507)
Assay: Radioligand binding assay for γ2-containing GABAA subtypes, [3H]Flumazenil competition (α1β3γ2)
Experimental setup: Ki α1β3γ2 (nM)/Ki α2β2γ1 (nM)
Experimental: The affinity of compounds at GABAA γ2 subunit-containing receptors was measured by competition for [^3H]Flumazenil (81.1 Ci/mmol; Roche) binding to HEK293F cells expressing human (transiently transfected) receptors of composition α1β3γ2. Harvested pellets from HEK293F cells expressing the different GABAA γ2 receptor subtypes were resuspended in Mannitol Buffer pH 7.2-7.4 and processed as described above for the cells expressing the GABAA γ1 subunit-containing receptors. […]
Experimental endpoint: γ2/γ1 Selectivity Ratio

chemical_smiles=COCCNC(=O)c1nc2n(n1)-c1ccc(Cl)c(Cl)c1C(c1c(F)cccc1F)=N[C@H]2C study_target="human GABAA α1β3γ2 receptor (Homo sapiens (Human), UniProt P14867+P18507)" value_reported=147.4
chemical_smiles=C[C@@H]1N=C(c2c(F)cccc2F)c2c(ccc(Cl)c2Cl)-n2nc(C(=O)N3CC4(CCCCO4)C3)nc21 study_target="human GABAA α1β3γ2 receptor (Homo sapiens (Human), UniProt P14867+P18507)" value_reported=145.4
chemical_smiles=C[C@@H]1N=C(c2c(F)cccc2F)c2c(ccc(Cl)c2Cl)-n2nc(C(=O)N3CC(OC(F)F)C3)nc21 study_target="human GABAA α1β3γ2 receptor (Homo sapiens (Human), UniProt P14867+P18507)" value_reported=33.2
chemical_smiles=Fc1cccc(F)c1C1=NCc2nc(C(F)F)cn2-c2ccc(Br)c(Cl)c21 study_target="human GABAA α1β3γ2 receptor (Homo sapiens (Human), UniProt P14867+P18507)" value_reported=15.0
